# System: AncSZ
# procedure-text: phosphorylation enrichment, bacterial display (enrichment ratio); higher = better substrate or ligand; peptides without Tyr show the background;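 also: 11-residue human phosphosite peptides and single-mutation variants displayed on the E. coli surface, counted by deep sequencing, each peptide's frequency after selection divided by its frequency in the unselected input library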;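 also: frequency after pTyr selection over input frequency; kinase dosed for 20-30% of maximal phosphorylation in three min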
quantity-measured: phosphorylation enrichment
Give only the figure.

Look up phosphorylation enrichment for this sequence: NFAKMYCNPDA [KNL1_Y489_YF]
0.942

Look up phosphorylation enrichment for this sequence: KELANYFKLHH [AK7_Y390_YF]
0.644

Look up phosphorylation enrichment for this sequence: PMFTKYGNSLL [RPGRIP1L_Y196]
1.45

Look up phosphorylation enrichment for this sequence: RLGNQYVNVMN [SLC3A1_Y461]
0.619

Look up phosphorylation enrichment for this sequence: WRVISYHVVVW [ATP13A2_Y50_G49S]
1.2

Look up phosphorylation enrichment for this sequence: KLFFHYDPKLC [INSR_Y457_N458D]
1.01

Look up phosphorylation enrichment for this sequence: CPPKVYELMRA [ABL2_Y515]
0.662

Look up phosphorylation enrichment for this sequence: HLRAGYIIPLQ [GAA_Y822]
0.668

Look up phosphorylation enrichment for this sequence: AFHGEYIPTVF [RAC2_Y32_P29H]
0.859

Look up phosphorylation enrichment for this sequence: IDSTPYGQWYE [RPS8_Y109_R110G]
1.12

Look up phosphorylation enrichment for this sequence: GCKNHYDKDKP [THAP1_Y14_R13H]
0.583

Look up phosphorylation enrichment for this sequence: KVKPIYFHTRG [AR_Y916_Q920R]
0.853

Look up phosphorylation enrichment for this sequence: AALRLYHVSDS [VIL1_Y256_K254R]
0.738

Look up phosphorylation enrichment for this sequence: VEGISYDFIPT [CBS_Y308_G307S]
1.28

Look up phosphorylation enrichment for this sequence: CENCHYPILPL [LCK_Y25_V28L]
0.678

Look up phosphorylation enrichment for this sequence: RMGNLYDIDED [GRIN2A_Y1246]
1.11

Look up phosphorylation enrichment for this sequence: TVVGLYQKSSL [MYH7_Y609]
0.973

Look up phosphorylation enrichment for this sequence: HIKHNYECLVF [XRCC5_Y416_YF]
1.31

Look up phosphorylation enrichment for this sequence: PQGVSYIYTID [DCX_Y103_R102S]
1.62

Look up phosphorylation enrichment for this sequence: RELSWYRGRRP [HESX1_Y106]
1.02

---

Please respond with reported phosphorylation enrichment for every item in the list.
# system-tested: Fes (UniProt P07332)
# Sequence (P07332 whole entry, looked up): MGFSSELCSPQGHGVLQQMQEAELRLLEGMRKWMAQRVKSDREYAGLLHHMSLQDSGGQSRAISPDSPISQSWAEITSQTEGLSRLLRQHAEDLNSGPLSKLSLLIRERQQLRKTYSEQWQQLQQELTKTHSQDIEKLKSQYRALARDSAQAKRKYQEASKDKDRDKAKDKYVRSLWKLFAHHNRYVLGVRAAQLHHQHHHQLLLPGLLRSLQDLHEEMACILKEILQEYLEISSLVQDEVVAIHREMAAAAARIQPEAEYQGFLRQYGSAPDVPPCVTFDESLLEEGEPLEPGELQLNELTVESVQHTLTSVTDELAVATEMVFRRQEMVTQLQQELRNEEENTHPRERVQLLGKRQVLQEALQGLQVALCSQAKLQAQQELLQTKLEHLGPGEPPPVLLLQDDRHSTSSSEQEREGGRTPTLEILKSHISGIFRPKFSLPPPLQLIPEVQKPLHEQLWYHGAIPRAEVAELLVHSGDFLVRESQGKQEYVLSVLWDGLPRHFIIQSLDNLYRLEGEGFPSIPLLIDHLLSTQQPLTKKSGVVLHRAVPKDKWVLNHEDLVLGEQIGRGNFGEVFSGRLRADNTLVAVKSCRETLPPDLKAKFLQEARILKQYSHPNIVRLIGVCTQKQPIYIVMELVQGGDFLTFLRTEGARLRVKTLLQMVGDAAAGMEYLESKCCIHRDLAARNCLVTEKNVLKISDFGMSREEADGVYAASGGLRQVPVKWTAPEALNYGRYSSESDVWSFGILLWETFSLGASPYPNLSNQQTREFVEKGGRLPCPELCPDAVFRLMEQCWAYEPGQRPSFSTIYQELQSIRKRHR
# procedure-text: phosphorylation enrichment, bacterial display (enrichment ratio); higher = better substrate or ligand; peptides without Tyr show the background
Give only the figure.

Look up phosphorylation enrichment for this sequence: AVHPGYGFLSE [PCCA_Y143]
0.99

Look up phosphorylation enrichment for this sequence: AIIGIYILRDD [CDH23_Y2949]
1.5

Look up phosphorylation enrichment for this sequence: RASGIYYVPKG [APBB1IP_Y340]
1.24

Look up phosphorylation enrichment for this sequence: EFGRRYGFSCQ [CCDC93_Y209_R213C_YF]
0.989

Look up phosphorylation enrichment for this sequence: PKSLFYLLLKL [TRPC6_Y775]
2.82

Look up phosphorylation enrichment for this sequence: FSGKAYADEER [CRIM1_Y826]
1.03

Look up phosphorylation enrichment for this sequence: RFVTRYIFNRE [HLA-DQB1_Y62_YF]
1.68

Look up phosphorylation enrichment for this sequence: MDQAEYQAKIR [DHX58_Y518]
0.708

Look up phosphorylation enrichment for this sequence: RAMPVYEKAEH [TP63_Y231_K232E]
0.598

Look up phosphorylation enrichment for this sequence: RPSRWYQFPVA [ANOS1_Y259_R262P]
0.889

Look up phosphorylation enrichment for this sequence: LARHMYDKEYY [MET_Y1230_D1228H]
0.933

Look up phosphorylation enrichment for this sequence: LRFDVYGGENE [STOX1_Y610_E608D_YF]
1.29

Look up phosphorylation enrichment for this sequence: HIKHNYECLVF [XRCC5_Y416_YF]
1.09

Look up phosphorylation enrichment for this sequence: PLQSEYSSIST [ITGB4_Y1760_T1764S]
1.28

Look up phosphorylation enrichment for this sequence: FSLIHYAGIVV [MYH7_Y582_D587V]
1.37

Look up phosphorylation enrichment for this sequence: LYSNAYLSDLA [ALDH1A1_Y119_N121S]
1.01

Look up phosphorylation enrichment for this sequence: NVADHYRVFKP [ATP6V0D2_Y271_G272R_YF]
0.616

Look up phosphorylation enrichment for this sequence: FQQLFYLLQIN [IQGAP2_Y890_T894I_YF]
1.76

Look up phosphorylation enrichment for this sequence: LPHVIYCRLWC [SMAD2_Y128_R133C]
1.35

Look up phosphorylation enrichment for this sequence: HTVEDYQAIVD [CCT7_Y263]
2.21

Look up phosphorylation enrichment for this sequence: LSGVIYVILWK [PMP22_Y153_R157W]
1.95

Look up phosphorylation enrichment for this sequence: SLIERYEPSET [PLCD1_Y258]
1.1

Look up phosphorylation enrichment for this sequence: SPFAVYRFFTF [RPGRIP1_Y826_YF]
1.33

Look up phosphorylation enrichment for this sequence: VATSWYRSPEL [CDKL5_Y177_R175S]
0.656

Look up phosphorylation enrichment for this sequence: NIFSFYLSRDP [CTSD_Y232]
1.14

Look up phosphorylation enrichment for this sequence: KLFIEYPTGSG [IRF2BPL_Y423]
0.775

Look up phosphorylation enrichment for this sequence: GLTSTYAGIRK [ROBO1_Y932]
0.66

Look up phosphorylation enrichment for this sequence: FSDPDYLAAVD [GLB1_Y154_S149F]
0.939
